Tested on: VDR homodimer (NR concentration 270 nM)
Assay: PBM binding z-score (relative to random genomic background probes); higher = stronger binding; sequences stand for … in GC…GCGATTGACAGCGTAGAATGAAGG
Mark 0 for PBM binding z-score values under 0.7, and 1 for everything at or above.

[[record]]
sequence_record = "AGCGAAAGGTCGTGAGGTGAGTATACAGAAAGGC"
category_label = 1

[[record]]
sequence_record = "TCTAGTTGGGCAAAGGTCACACACTCGAAATGCG"
category_label = 1

[[record]]
sequence_record = "ATATGTAGGTTATCGGGTCACTCAGTTTGCGCAT"
category_label = 1

[[record]]
sequence_record = "ACAGACAGGTGATGAAGTTAACTCAGGCTATCAT"
category_label = 0

[[record]]
sequence_record = "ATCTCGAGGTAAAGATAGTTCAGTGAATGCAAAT"
category_label = 0

[[record]]
sequence_record = "ATCTCTAGGTAAAGTTCAGTGACAGATCGATAGA"
category_label = 1

[[record]]
sequence_record = "CGTCAAAATTCAACTAAGGTAACGTAAAGCACGC"
category_label = 0

[[record]]
sequence_record = "AATACAGGGTCAACGTAGGCCAGAGTACGCACAG"
category_label = 1

[[record]]
sequence_record = "ATCCCAAGGTGATCGTGAGGTCGTTGATACTAAC"
category_label = 1

[[record]]
sequence_record = "GCTAGTTGGTCAGTTAAAGGTCACACACCGGTCG"
category_label = 1

